The measurements presented in this section are drawn from patent US4471131A.

test system: Morningglory; experiment: post-emergence herbicidal activity, greenhouse; format: in vivo; conditions: Table II; 2 WAT; 11.2 kg/h; formulated in anhydrous tetrahydrofuran
I'd appreciate it if you could supply Plant Response Index (D) values for the items below.

Inquiry: Need Plant Response Index (D), item `CCOC(=O)CNCP(=O)(O)O[Si](c1ccccc1)(c1ccccc1)C(C)(C)C`
Reply text: 1 (25-49% inhibition)

Inquiry: # Plant Response Index (D) lookup, item `CCCCOC(=O)CNCP(=O)(O)O[Si](c1ccccc1)(c1ccccc1)C(C)(C)C`
Reply text: 2 (50-74% inhibition)

Inquiry: Quick one: Plant Response Index (D) of `CCCCOC(=O)CNCP(=O)(O)O[Si](C)(C)C(C)(C)C` ?
Reply text: 1 (25-49% inhibition)

Inquiry: For `CC(C)(C)[Si](OP(=O)(O)CNCC(=O)O)(c1ccccc1)c1ccccc1` , what is its reported Plant Response Index (D)?
Reply text: 1 (25-49% inhibition)

====

test system: Cocklebur; assay: post-emergence herbicidal activity, greenhouse; format: in vivo; settings: Table II; 4 WAT; 11.2 kg/h; formulated immediately prior to treatment
Quantity: Plant Response Index (B)

Inquiry: Endpoint output: Plant Response Index (B) of `CC(C)OC(=O)CNCP(=O)(O)O[Si](c1ccccc1)(c1ccccc1)C(C)(C)C` . Value?
Reply text: 3 (75-99% inhibition)

Inquiry: What value of measured Plant Response Index (B) is listed for CC(C)(C)[Si](C)(C)OP(=O)(CNCC(=O)OCCc1ccccc1)O[Si](C)(C)C(C)(C)C [Ex. 10, Hydrate] ?
Reply text: 2 (50-74% inhibition)

Inquiry: State the recorded Plant Response Index (B) for this entry: `CC(C)OC(=O)CNCP(=O)(O[Si](c1ccccc1)(c1ccccc1)C(C)(C)C)O[Si](c1ccccc1)(c1ccccc1)C(C)(C)C`
Reply text: 1 (25-49% inhibition)

Inquiry: Report Plant Response Index (B) for `CC(C)(C)[Si](C)(C)OC(=O)CNCP(=O)(O[Si](C)(C)C(C)(C)C)O[Si](C)(C)C(C)(C)C` please.
Reply text: 2 (50-74% inhibition)

====

Please go through the items and note down their Plant Response Index (K).
tested on: Barnyardgrass; assay: post-emergence herbicidal activity, greenhouse; type: in vivo; conditions: Table III; 2 WAT; 5.6 kg/h

Inquiry: Any idea what its Plant Response Index (K) is? The compound is `CC(C)OC(=O)CNCP(=O)(O)O[Si](c1ccccc1)(c1ccccc1)C(C)(C)C`
Reply text: 3 (75-99% inhibition)

Inquiry: Would you kindly share the measured Plant Response Index (K) for `CC(C)OC(=O)CNCP(=O)(O[Si](c1ccccc1)(c1ccccc1)C(C)(C)C)O[Si](c1ccccc1)(c1ccccc1)C(C)(C)C` ?
Reply text: 4 (100% inhibition)

Inquiry: Fill blank: measured Plant Response Index (K) of the compound `CCOC(=O)CNCP(=O)(O)O[Si](c1ccccc1)(c1ccccc1)C(C)(C)C` is ____.
Reply text: 3 (75-99% inhibition)

Inquiry: Reported Plant Response Index (K), compound `CCCCOC(=O)CNCP(=O)(O)O[Si](c1ccccc1)(c1ccccc1)C(C)(C)C` : ____
Reply text: 3 (75-99% inhibition)

Inquiry: Reported Plant Response Index (K) for CC(C)(C)[Si](C)(C)OP(=O)(CNCC(=O)OCCc1ccccc1)O[Si](C)(C)C(C)(C)C [Ex. 10, Hydrate] : what is it?
Reply text: 2 (50-74% inhibition)
